// data source = patent US11365188B2

pIC50: −log10 of the molar value.
ASSAY_METRIC: pIC50

Req: What is its pIC50 for JAK2 (Homo sapiens, UniProt O60674)? Entry: "Cc1cncc(C(=O)N2CC3(CC(N(C)c4ncnc5[nH]ccc45)C3)C2)n1"
Resp: 5.00 to 6.00

Req: What is its pIC50 for JAK2 (Homo sapiens, UniProt O60674)? Entry: "CN(c1ncnc2[nH]ccc12)C1CC2(C1)CN(C(=O)c1ccc(C(F)(F)F)cc1)C2"
Resp: 5.00 to 6.00

Req: What is its pIC50 for JAK2 (Homo sapiens, UniProt O60674)? Entry: "CN(c1ncnc2[nH]ccc12)C1CCC2(CC1)CCN(C(=O)c1cccc(C(F)(F)F)c1)CC2"
Resp: 6.00 to 7.00

Req: What is its pIC50 for JAK2 (Homo sapiens, UniProt O60674)? Entry: "CN(c1ncnc2[nH]ccc12)C1CC2(C1)CN(C(=O)c1ccc3c(c1)ncn3C)C2"
Resp: 5.00 to 6.00

Req: What is its pIC50 for JAK2 (Homo sapiens, UniProt O60674)? Entry: "CN(c1ncnc2[nH]ccc12)C1CCC2(CC1)CCN(C(=O)c1csc3ccccc13)CC2"
Resp: 6.00 to 7.00

Req: What is its pIC50 for JAK2 (Homo sapiens, UniProt O60674)? Entry: "CN(c1ncnc2[nH]ccc12)C1CC2(C1)CN(C(=O)c1ccc(C#N)c(Cl)c1)C2"
Resp: 5.00 to 6.00

Req: What is its pIC50 for JAK2 (Homo sapiens, UniProt O60674)? Entry: "CN(c1ncnc2[nH]ccc12)C1CCC2(CC1)CCN(C(=O)C1CCC(=O)CC1)CC2"
Resp: 5.00 to 6.00

Req: What is its pIC50 for JAK2 (Homo sapiens, UniProt O60674)? Entry: "CN(c1ncnc2[nH]ccc12)C1CCC2(CC1)CCN(C(=O)C1CC1)CC2"
Resp: 6.00 to 7.00
